Property: SPOT intensity; scope: individual binders
# MEASURED TARGET: T1, Hof1, Q05080
# T1 sequence (Q05080 590-669, looked up): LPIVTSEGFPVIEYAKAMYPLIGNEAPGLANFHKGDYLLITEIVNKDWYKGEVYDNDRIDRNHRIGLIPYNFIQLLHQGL
# ASSAY SUMMARY: SPOT array
# EXPERIMENTAL CONTEXT: median of control spots 4086
Give the figure by itself; no unit, no explanation.

>>> observed_result("KTKQQKPAIPQKKSF")
0

Recorded SPOT intensity for "AHFQPQRTAPKPPIS" , please?
0

Please report the recorded SPOT intensity for "DDEDVPPQLPTRTKS" .
0

What value of SPOT intensity has been recorded for this entry: "LRWRHKFFLPAIAAI"
0
